tested on: velvetleaf (Abutilon theophrasti, ABUTH); assay: Greenhouse postemergence trial, % visual injury; type: in vivo; conditions: 5 g ae/ha alone; 20-22 d
Simple rule here: % visual injury Obs less than 20% is Criterion met, otherwise Criterion not met.

The following compounds have reported results that may help.
# SMILES_STRING, ANSWER_LABEL
measured = [
    ("C=C(F)c1c(C(=O)O)nc(-c2ccc3cc[nH]c3c2F)c(F)c1N", "Criterion not met"),
    ("COC(=O)c1nc(-c2ccc3cc[nH]c3c2F)c(F)c(/N=C/N(C)C)c1Cl", "Criterion met"),
    ("Nc1c(F)c(-c2cc(F)c3[nH]ccc3c2)nc(C(=O)O)c1Cl", "Criterion met"),
]

Record "Nc1c(F)c(-c2ccc3ccoc3c2)nc(C(=O)O)c1Cl" : is its % visual injury Obs strictly below 20%? Criterion met

Record "COC(=O)c1nc(-c2ccc3ccoc3c2F)nc(N)c1OC" : is its % visual injury Obs strictly below 20%? Criterion met

---

Quick reference: % visual injury Obs of the listed items.
tested on: winter wheat (TRZAW); assay: Greenhouse postemergence trial, crop phytotoxicity (% visual injury); conditions: crop; 5 g ae/ha alone; 20-22 d
State just the number; it will be interpreted in %.

# SMILES_STRING, MEASUREMENT_TARGET, UNIT_STRING, % visual injury Obs
records = [
    ("Nc1c(F)c(-c2cc(F)c3[nH]ccc3c2)nc(C(=O)O)c1Cl", "winter wheat (TRZAW)", "%", 0),
    ("COC(=O)c1nc(-c2ccc3scnc3c2)c(F)c(N)c1Cl", "winter wheat (TRZAW)", "%", 5),
    ("COC(=O)c1nc(-c2ccc3ccoc3c2F)nc(N)c1OC", "winter wheat (TRZAW)", "%", 0),
]

Provide % visual injury Obs, tested on winter wheat (TRZAW), for "C=C(F)c1c(C(=O)O)nc(-c2ccc3cc[nH]c3c2F)c(F)c1N" . 5

Provide % visual injury Obs, tested on winter wheat (TRZAW), for "COC(=O)c1nc(-c2ccc3sccc3c2)c(F)c(N)c1Cl" . 0

Provide % visual injury Obs, tested on winter wheat (TRZAW), for "Nc1c(F)c(-c2ccc3ccoc3c2)nc(C(=O)O)c1Cl" . 5

Provide % visual injury Obs, tested on winter wheat (TRZAW), for "COc1c(N)nc(-c2ccc3sccc3c2)nc1C(=O)O" . 10

These measurements were taken from patent US9521847B2.
